# Procedure Summary: Particle size and polydispersity index of nanoparticle compositions (Zetasizer Nano ZS)
# Type: physicochemical
# Recorded Conditions: Table 1d, Formulated with lipid:Chol:DOPE:PEG 1 40:38.5:20:1.5
Outcome Measure: Size (nm)

Example entries begin here.
{"Smiles Input": "CCCCC/C=C\\CCN(CC/C=C\\CCCCC)CCN(CC/C=C\\CCCCC)CC(=O)N(C)CCN(C)C(=O)CN(CCCCCCCCC)CCCCCCCCC", "Unit Annotation": "nm", "Size (nm)": 103.3}
{"Smiles Input": "CCCCCCCCCN(CCCCCCCCC)CCN(CCCCCCCCC)CC(=O)N(CC)CCN(CC)C(=O)CN(CCCCCCCCC)CCCCCCCCC", "Unit Annotation": "nm", "Size (nm)": 89.8}
{"Smiles Input": "CCCCCCCCCN(CCCCCCCCC)CCN(CCCCCCCCC)CC(=O)N(C)CCCN(C)C(=O)CN(CCCCCCCCC)CCCCCCCCC", "Unit Annotation": "nm", "Size (nm)": 84.4}
{"Smiles Input": "CCCCCCCCCN(CCCCCCCCC)CCCCCCCCN(CCCCCCCCC)CCN(CCCCCCCCC)CCCCCCCCC", "Unit Annotation": "nm", "Size (nm)": 115.5}

A = CCCCCCCCCCCCCCN(CCCOC(=O)CCCCCCCCC)CC(=O)N(C)CCN(C)C(=O)CN(CCCCCCCCC)CCN(CCCCCCCCC)CCCCCCCCC
B = CCCCCCCCCN(CCCCCCCCC)CCN(CCCCCCCCC)CC(=O)N(C)CCCCN(C)C(=O)CN(CCCCCCCCC)CCCCCCCCC
Enquiry: Which of the two gives a bigger number for Size (nm): A or B ? Identify your selection by its label.
Return: A
(A: 124.2 nm, B: 76.5 nm)
